Recorded inhibition, one value per entry.
assay system: Sphingosine 1-phosphate receptor 4 (Homo sapiens)
test: S1P4 receptor antagonists, primary screen, cell-based (AID 1510);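 further: 0% = wells stimulated with agonist and 100% = vehicle wells without agonist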
condition: S1P4-expressing cells, antagonist mode, reporter read-out; at 4.98 µM; hits give high values
Out of some 220,000 compounds screened, about 570 (0.26%) were called active. For the sample, actives were picked, then their nearest neighbours and some compounds at random.
Enter your answer as a number in %; do not include the unit.

• O=C(Nc1ccccc1)N1CCN(C2c3ccccc3-c3ccccc32)CC1 = -2.81

Given the entry COc1ccc(NC(=S)Nc2ccccc2Cl)cn1 , what inhibition was observed with Sphingosine 1-phosphate receptor 4 (Homo sapiens)? -10.6

API: value(readout=inhibition, system=Sphingosine 1-phosphate receptor 4 (Homo sapiens)) for record O=C1c2cccc3c([N+](=O)[O-])ccc(c23)C(=O)N1CC1CCCO1 (stereo unspecified) 77.4

Which measured inhibition belongs to O=C(/C=C/c1ccc(Cl)c([N+](=O)[O-])c1)c1ccc(O)cc1 , tested on Sphingosine 1-phosphate receptor 4 (Homo sapiens)? 46.2

Find inhibition (Sphingosine 1-phosphate receptor 4 (Homo sapiens)) for the entry Cn1c(N)c(C(=O)COC(=O)c2cnc(Cl)c(Cl)c2)c(=O)n(C)c1=O -6.76

Enter reported inhibition observed with Sphingosine 1-phosphate receptor 4 (Homo sapiens) for CN(C)c1ccc(/C=C/C(=O)c2ccc(O)cc2)cc1[N+](=O)[O-] 6.74

Request - read-out inhibition | tested on Sphingosine 1-phosphate receptor 4 (Homo sapiens) | molecule O=C(Nc1ccc(Cl)cc1)c1ccsn1 4.84

Value wanted: inhibition (Sphingosine 1-phosphate receptor 4 (Homo sapiens)) of entry O=C1N(c2ccccc2)C(=Nc2ccccc2)SC12CC2 1.83
